The reported numbers originate from patent US10513547B2.

target: HLA-A*02:01 (Homo sapiens, UniProt P04439, D140Y/D185E/D98H/E176V/E277Q/G131W/G231S/I119V/I121R/I166T/I218V/L300P/L318F/N151K/N90K/P208A/P217A/Q86G/Q94H/R138H/R169H/T345S); assay: MHC binding assay (UV-ligand exchange, beta2m ELISA, peptide exchange yield); conditions: binding to HLA-A*02:01
outcome.measure: Peptide exchange (MHC class I binding score, peptide exchange yield)

Study these solved cases before continuing.
{"substance": "8 (ALMLQGVDLL; listed as Homo sapiens) [compound 8]", "reported.value": "“+++” (≥50 = +++)"}
{"substance": "33 (ALWEKNTHL; listed as Homo sapiens) [compound 33]", "reported.value": "“+++” (≥50 = +++)"}
{"substance": "179 (RLLSPLSSA; listed as Homo sapiens) [compound 179]", "reported.value": "“+++” (≥50 = +++)"}
{"substance": "89 (SLIEYEFRV; listed as Homo sapiens) [compound 89]", "reported.value": "“+++” (≥50 = +++)"}
{"substance": "102 (KILVSLIEV; listed as Homo sapiens) [compound 102]", "reported.value": "“+++” (≥50 = +++)"}
{"substance": "107 (ALLGGGPYML; listed as Homo sapiens) [compound 107]", "reported.value": "“+++” (≥50 = +++)"}

# input // fetch Peptide exchange (MHC class I binding score, peptide exchange yield) given entry 51 (QVWEIQHTV; listed as Homo sapiens) [compound 51]
# output “++” (≥20% = ++)

# input Please give measured Peptide exchange (MHC class I binding score, peptide exchange yield) of the following entry: 86 (KVFPGKISV; listed as Homo sapiens) [compound 86]
# output “++” (≥20% = ++)

# input Report Peptide exchange (MHC class I binding score, peptide exchange yield), nothing else, for this substance: 121 (SLAPNIISQL; listed as Homo sapiens) [compound 121]
# output “+++” (≥50 = +++)

# input Provide Peptide exchange (MHC class I binding score, peptide exchange yield) value for the following substance: 78 (ALDPELLLL; listed as Homo sapiens) [compound 78]
# output “++” (≥20% = ++)

# input // fetch Peptide exchange (MHC class I binding score, peptide exchange yield) given entry 138 (KQFEGTVEI; listed as Homo sapiens) [compound 138]
# output “+++” (≥50 = +++)

# input Look up Peptide exchange (MHC class I binding score, peptide exchange yield) of 28 (ALTEIQEFI; listed as Homo sapiens) [compound 28] and report it.
# output “++++” (≥75% = ++++)

# input Supply recorded Peptide exchange (MHC class I binding score, peptide exchange yield) for 85 (ILHDINSDGVL; listed as Homo sapiens) [compound 85] here.
# output “++” (≥20% = ++)

# input Given 125 (KLGDFGLLVEL; listed as Homo sapiens) [compound 125] , respond with its Peptide exchange (MHC class I binding score, peptide exchange yield).
# output “++++” (≥75% = ++++)

# input Return Peptide exchange (MHC class I binding score, peptide exchange yield) (reported value) for this substance: 10 (RMYNKIFAI; listed as Homo sapiens) [compound 10]
# output “+++” (≥50 = +++)

# input Quick one: give measured Peptide exchange (MHC class I binding score, peptide exchange yield) for 122 (SLMGMVLKL; listed as Homo sapiens) [compound 122]
# output “+++” (≥50 = +++)

# input Name the recorded Peptide exchange (MHC class I binding score, peptide exchange yield) of the substance listed here: 9 (ILDDHLSRV; listed as Homo sapiens) [compound 9]
# output “++” (≥20% = ++)

# input Identify measured Peptide exchange (MHC class I binding score, peptide exchange yield) associated with 38 (SLAPTPVSA; listed as Homo sapiens) [compound 38]
# output “++” (≥20% = ++)

# input Read the entry 50 (TLMAEMHVV; listed as Homo sapiens) [compound 50] and write its reported Peptide exchange (MHC class I binding score, peptide exchange yield).
# output “+++” (≥50 = +++)

# input Answer with reported Peptide exchange (MHC class I binding score, peptide exchange yield) of 45 (ALAELLHGA; listed as Homo sapiens) [compound 45]
# output “+++” (≥50 = +++)
